Examples of molecules with documented IC50 follow.
Assay System: PDE4B enzyme (Homo sapiens (Human))
Sequence (Q07343 whole entry): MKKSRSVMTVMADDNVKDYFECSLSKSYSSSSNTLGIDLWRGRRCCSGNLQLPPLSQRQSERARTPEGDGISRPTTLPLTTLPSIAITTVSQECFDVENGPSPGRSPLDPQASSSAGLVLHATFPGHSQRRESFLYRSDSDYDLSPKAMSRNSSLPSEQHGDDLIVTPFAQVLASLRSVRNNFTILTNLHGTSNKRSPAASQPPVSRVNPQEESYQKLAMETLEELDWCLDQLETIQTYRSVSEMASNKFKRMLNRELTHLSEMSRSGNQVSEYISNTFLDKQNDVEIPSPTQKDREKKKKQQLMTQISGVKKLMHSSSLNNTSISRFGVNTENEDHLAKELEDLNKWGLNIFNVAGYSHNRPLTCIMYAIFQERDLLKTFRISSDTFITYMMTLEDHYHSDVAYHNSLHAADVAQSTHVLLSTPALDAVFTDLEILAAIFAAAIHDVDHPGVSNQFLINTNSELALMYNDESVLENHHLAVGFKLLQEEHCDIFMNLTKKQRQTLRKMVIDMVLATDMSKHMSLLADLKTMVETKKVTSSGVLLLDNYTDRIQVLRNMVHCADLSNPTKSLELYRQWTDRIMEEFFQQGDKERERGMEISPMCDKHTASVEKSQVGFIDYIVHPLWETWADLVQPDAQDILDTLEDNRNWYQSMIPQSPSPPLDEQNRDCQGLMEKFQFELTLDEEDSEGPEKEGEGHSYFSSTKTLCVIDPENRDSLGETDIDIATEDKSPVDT
Assay Overview: PDE4B inhibitory activity, LANCE Ultra cAMP assay
Measurement Parameters: 50% inhibition from cAMP to 5′AMP
Enter your answer as a number in nM; do not include the unit.

As a guide, the following entries are already answered.
Molecule	Value Observed
COc1ccc(NC(=O)c2cnc(SC)nc2-c2ccc(OC)c(OC)c2)cc1OC [Example 29]	634
CSc1ncc(C(=O)Nc2ccc(F)cc2)c(N2CCOCC2)n1 [Example 6]	367
COc1ccc(NC(=O)c2cnc(SC)nc2N2CCN(CCO)CC2)cc1OC [Example 22]	881
COc1ccc(-c2nc(SC)ncc2C(=O)NCCN2CCOCC2)cc1OC [Example 27]	860

Turning now to a further molecule:
The molecule COc1ccc(CNC(=O)c2cnc(SC)nc2N2CCOCC2)c(OC)c1 [Example 9] showed IC50 equal to 377
